# TEST SYSTEM: T1, NOD mouse SIRP-α (mouse (NOD strain))
# T1 chain: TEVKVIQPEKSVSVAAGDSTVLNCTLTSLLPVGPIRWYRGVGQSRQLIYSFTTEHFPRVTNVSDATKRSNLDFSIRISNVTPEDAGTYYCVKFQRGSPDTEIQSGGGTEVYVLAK
# EXPERIMENTAL DETAILS: SPR
Recorded Kd, one value per entry.
Kindly provide the numeric value in µM only, without the unit symbol.

{"BINDER": "Hum9/AB25_HC_Mutall (antibody, V domains shown) VH: EVQLVESGGGVVQPGGSLRLSCAASGFTFSSNAMSWVRQAPGKGLEWVAGISSGSDTYYGDSVKGRFTISRDNSKNTLYLQMNSLTAEDTAVYYCARETWNHLFDYWGQGTLVTVSS VL: SYELTQPPSVSVSPGQTARITCSGGAYSSYYYAWYQQKPGQAPVLVIYSDDKRPSGIPERFSGSSSGTTVTLTISGVQAEDEADYYCGGYDQSSYTNPFGGGTKLTVL", "OBSERVED": 0.0612}

Read the next record carefully.
// Hum1/AB21_HC_Mutall (antibody, V domains shown, also called Hum1/AB21mutall) VH: EVQLVESGGGVVQPGGSLRLSCAASGFTFSSNAMSWVRQAPGKGLEWVAGISAGGSDTYYPASVKGRFTISRDNSKNTLYLQMNSLRAEDTAVYYCARETWNHLFDYWGQGTLVTVSS VL: SYELTQPPSVSVSPGQTARITCSGGSYSSYYYAWYQQKPGQAPVTLIYSDDKRPSNIPERFSGSSSGTTVTLTISGVQAEDEADYYCGGYDQSSYTNPFGGGTKLTVL : Kd value = 0.0037
